These data points were gathered from ChEMBL document CHEMBL4513216.

assay: Toxicity liver stage against HepG2, at 10uM; assay type: cell-based; parameters: test concentration 10 uM, cell line HepG2-A16-CD81EGFP; settings: human, HepG2-A16-CD81EGFP cells; read-out: INHIBITION
Reported Property: cytotoxicity at 10 µM (%)

In [3]: df
Out[3]:
                                    compound      reported_property  value_measured
 0  CCN(CC)CCCC(C)NC(=O)c1cccnc1-n1cccn1 (stereo unspecified)  cytotoxicity at 10 µM          -0.595
 1         CCn1cc(CN2CCC(CNC(C)=O)CC2)cc1C#N  cytotoxicity at 10 µM           -6.21
 2  O=C(c1ccco1)N1CCCC1C1CCN(Cc2ccccc2)CC1 (stereo unspecified)  cytotoxicity at 10 µM           0.821
 3  O=C(Nc1cc(F)ccc1OCC1CCCO1)c1ccoc1 (stereo unspecified)  cytotoxicity at 10 µM            4.43
 4  CN(C)C(C(=O)N1CC(c2ccccn2)C1)c1cccc(F)c1 (stereo unspecified)  cytotoxicity at 10 µM           -0.95
 5  Cc1noc(C)c1CN(C)C(=O)CN1CC(c2ccccc2)CC1=O (stereo unspecified)  cytotoxicity at 10 µM            -2.4
 6  Cc1cccc(C(=O)N2CC(Cc3nccc4ccn(C)c34)C2)n1  cytotoxicity at 10 µM           -40.5
 7  CN(C)c1ccc(C(=O)N2CCCN(Cc3cnn(C)c3)CC2)nn1  cytotoxicity at 10 µM           -5.28
 8  C[C@@H]1CN(C(=O)c2cc(Cn3ccc4ccccc43)[nH]n2)C[C@H](C)O1  cytotoxicity at 10 µM           -12.2
 9              O=C(NCCSC1CCCC1)c1ccc(F)cc1F  cytotoxicity at 10 µM           -3.16
10  CCN1CCCC1CN(Cc1cc[nH]n1)CC1CCN(CCOC)CC1 (stereo unspecified)  cytotoxicity at 10 µM           -5.14

---

test: Toxicity liver stage against HepG2, at 10uM; assay type: cell-based; set-up: test concentration 10 uM, cell line HepG2-A16-CD81EGFP; settings: human, HepG2-A16-CD81EGFP cells; read-out: INHIBITION
Reported Property: cytotoxicity at 10 µM (%)

In [3]: df
Out[3]:
                                    compound      reported_property  value_measured
 0  COCCn1c(C(=O)NCC(C)C(=O)O)cc2ccccc21 (stereo unspecified)  cytotoxicity at 10 µM            2.64
 1  O=C(NCC1CC1)[C@@H]1CCO[C@@H]2CCN(Cc3ccc(F)cc3)C[C@H]21  cytotoxicity at 10 µM            1.42
 2           Cc1ncnc2c1CCN(C(=O)c1cccnc1)CC2  cytotoxicity at 10 µM            8.36
 3  O=C(c1cc(C2CC2)[nH]n1)N1CCN(Cc2ccc(Cl)cc2)CC1  cytotoxicity at 10 µM            37.2
 4  CN(C)c1cc(C2CCCN(C(=O)c3noc4c3CCCC4)C2)ccn1 (stereo unspecified)  cytotoxicity at 10 µM           -12.3
 5       O=C1CN(CCCNC(=O)Nc2cccc(Cl)c2F)CCN1  cytotoxicity at 10 µM            15.2
 6  CN(Cc1cccnc1)[C@@H]1CN(C(=O)CC2CC2)[C@@H]2CCCO[C@H]12  cytotoxicity at 10 µM            7.86
 7  Cc1c(-c2nc3cc(S(=O)(=O)N4CCCC4)ccc3n2C)cnn1C  cytotoxicity at 10 µM             2.2
 8              COC1CCN(CCNC(=O)C2CCCCC2)CC1  cytotoxicity at 10 µM           0.545
 9  COc1ccc(CC(=O)N2CCC3(CC2)CCN(CC(C)C)C3=O)cc1  cytotoxicity at 10 µM            1.11
10            O=C(CCc1ccccc1)N1CC(n2cncn2)C1  cytotoxicity at 10 µM           -15.7
